assay: amyloid nucleation score (Sup35N fusion, yeast selection) (log enrichment); library NNK3; higher = more nucleation; inactive = no reads after selection;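 also: zero at mode of non-aggregating sequences after 7 days selection at 30°C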
measured-attribute: amyloid nucleation score

sequence-entry	observed-measurement
SDCCYRTYVEIQKWSLVF	inactive
GGYVDLRLMT	inactive
VSVNMFLYISVNYKELGCEY	1.93
GGYSQKLYILYDYLFENYYS	inactive
GIRVSLGVSFRECFNNSVSR	2.43

Return amyloid nucleation score for the following sequence: `WVPKFYRLGSDTWSSVSLDV`
inactive

Return amyloid nucleation score for the following sequence: `VGERLANQIGTYCDDQWWTW`
inactive

Return amyloid nucleation score for the following sequence: `NSLCSLVLTLIWWIKCPCDV`
inactive

Return amyloid nucleation score for the following sequence: `YLCIKNRLDKDRSW`
inactive

Return amyloid nucleation score for the following sequence: `TLAPKYFYFFVKDVFGTSYC`
1.54

Return amyloid nucleation score for the following sequence: `SGVLLFGVSRMHQR`
0.203

Return amyloid nucleation score for the following sequence: `CVYGPRFNF`
1.94

###

experiment: amyloid nucleation score (Sup35N fusion, yeast selection) (log enrichment); library NNK1; higher = more nucleation; inactive = no reads after selection
Recorded amyloid nucleation score, one value per entry.

Worked examples, 3 substances total:
substance	observed-measurement
PRLYGISRKSYVLSIFDVVS	0.245
RFLAWTSLPQGAAKVIMKC	0.126
QVWSPHSVSKFGPGPPVTEA	-0.388

Return amyloid nucleation score for the following substance: `LGQGRLYILYFMSMYLDMMG`
0.748

Return amyloid nucleation score for the following substance: `LEVVHRVLCTFCLFDSLMVY`
1.78

###

assay: amyloid nucleation score (Sup35N fusion, yeast selection) (log enrichment); library NNK3; higher = more nucleation; inactive = no reads after selection
measured-attribute: amyloid nucleation score

Worked examples, 6 substances total:
substance	amyloid nucleation score
NFFMGLLSSRSMGLTWYWCM	inactive
WRFRIVR	inactive
VKLNYISLDENVRSVKQVMI	inactive
GHVAHLINILYVNSTIPQTG	inactive
HFRIKNTCFKRCLSVESRKY	inactive
CFCFLIM	1.05

Return amyloid nucleation score for the following substance: `TSESAIAVRWSVFSPWPLGF`
0.643

Return amyloid nucleation score for the following substance: `CFNGRCARLYISIIQVIELS`
inactive

Return amyloid nucleation score for the following substance: `FRSTCTFHCMERSRLRISPK`
inactive

Return amyloid nucleation score for the following substance: `NYDERCV`
-0.363

Return amyloid nucleation score for the following substance: `FARFSIAFMH`
0.231

Return amyloid nucleation score for the following substance: `LKGVKCVHSCWELPR`
-0.117

Return amyloid nucleation score for the following substance: `LDNVKDVRYWIVCTQWWNRV`
inactive

Return amyloid nucleation score for the following substance: `LAQMVNGRITDHYTLFRSRT`
inactive

Return amyloid nucleation score for the following substance: `IQCIWDIVGDCWCNSSMGKE`
inactive

Return amyloid nucleation score for the following substance: `DSFAGVRLGVHASNILIHGQ`
inactive

Return amyloid nucleation score for the following substance: `RWSRGMVSNCRENATWYDAA`
inactive

###

Recorded amyloid nucleation score, one value per entry.
assay: amyloid nucleation score (Sup35N fusion, yeast selection) (log enrichment); library NNK1; higher = more nucleation; inactive = no reads after selection
Write no unit; give the number alone.

Worked examples, 2 substances total:
substance	amyloid nucleation score
TGATATYKFFIFFIL	1.28
KNKVTFKVG	0.22

Then there is this substance:
Return amyloid nucleation score for the following substance: `DSASGNILYIRKLVI`
1.84
